target: Tyrosine-protein kinase BTK (Homo sapiens); assay: Enzymatic Activity Assay: A Caliper-based kinase assay (Caliper Life Sciences, Hopkinton, Mass.) was used to measure inhibition of BTK kinase activity of a compound of the present disclosure. Serial dilutions of test compounds were incubated with human recombinant BTK (0.5 nM), ATP (16 μM) and a phosphoacceptor peptide substrate FAM-GEEPLYWSFPAKKK-NH2 (1 μM) at room temperature for 3 h. The reaction was then terminated with EDTA, final concentration 20 mM and the phosphorylated reaction product was quantified on a Caliper Desktop Profiler (Caliper LabChip 3000). Percent inhibition was calculated for each compound dilution and the concentration that produced 50% inhibition was calculated.
Sequence (Q06187 whole entry): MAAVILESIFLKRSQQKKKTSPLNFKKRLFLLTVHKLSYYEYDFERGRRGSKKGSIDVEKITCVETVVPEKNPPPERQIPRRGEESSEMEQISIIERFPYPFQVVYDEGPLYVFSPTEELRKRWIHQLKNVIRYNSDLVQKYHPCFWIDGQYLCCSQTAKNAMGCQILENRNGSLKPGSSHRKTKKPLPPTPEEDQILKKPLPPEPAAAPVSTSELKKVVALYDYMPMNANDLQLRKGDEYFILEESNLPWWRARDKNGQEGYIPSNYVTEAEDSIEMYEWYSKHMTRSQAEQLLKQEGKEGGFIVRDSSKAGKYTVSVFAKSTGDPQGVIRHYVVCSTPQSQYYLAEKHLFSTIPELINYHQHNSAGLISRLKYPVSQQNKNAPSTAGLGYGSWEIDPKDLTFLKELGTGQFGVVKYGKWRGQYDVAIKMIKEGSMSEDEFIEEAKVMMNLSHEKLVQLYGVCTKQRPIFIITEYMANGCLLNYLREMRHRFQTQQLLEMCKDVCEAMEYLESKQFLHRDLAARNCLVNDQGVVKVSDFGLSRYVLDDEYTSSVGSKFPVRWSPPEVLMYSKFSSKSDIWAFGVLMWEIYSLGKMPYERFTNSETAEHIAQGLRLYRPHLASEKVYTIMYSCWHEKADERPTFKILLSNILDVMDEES
pIC50: −log10 of the molar value.
QUANTITY KIND: pIC50

> print(dat)
                                smiles.code  value.observed
1  CC(C)(C=C(C#N)C(=O)N1CCC[C@@H](n2nc(-c3ccc(Oc4ccccc4)cc3F)c3c(N)nccc32)C1)N1CCN(C2COC2)CC1            8.85
2  CC(C)(C=C(C#N)C(=O)N1CCC[C@@H](n2nc(-c3ccc(Oc4ccccc4F)cc3)c3c(N)nccc32)C1)N1CCN(C2COC2)CC1            8.66
3  CC(C)(C=C(C#N)C(=O)N1CCC[C@@H](n2nc(-c3ccc(Oc4ccccc4)cc3F)c3c(N)nccc32)C1)N1CCN(C2(C)COC2)CC1            9.10
4  CC(C)(C=C(C#N)C(=O)N1CCC[C@@H](c2nc(-c3ccc(Oc4ccccc4)cc3F)c3c(N)nccn23)C1)N1CCN(C2(C)COC2)CC1            8.62
5  CC(C)(C=C(C#N)C(=O)N1CCC[C@@H](n2nc(-c3ccc(C(=O)Nc4ccccn4)cc3)c3c(N)nccc32)C1)N1CCN(C2COC2)CC1            8.66
6  CC(C)(C=C(C#N)C(=O)N1CCC[C@@H](n2nc(-c3ccc(Oc4ccccc4)cc3F)c3c(N)nccc32)C1)C1(C)CCN(C2COC2)CC1            7.34
